I'd be grateful if you could share measured IC50 for these entries.
Target: cruzain (Trypanosoma cruzi)
Construct: made in house; host or cells: Escherichia coli (strain M15)
Sequence (P25779 123-337 limits assumed): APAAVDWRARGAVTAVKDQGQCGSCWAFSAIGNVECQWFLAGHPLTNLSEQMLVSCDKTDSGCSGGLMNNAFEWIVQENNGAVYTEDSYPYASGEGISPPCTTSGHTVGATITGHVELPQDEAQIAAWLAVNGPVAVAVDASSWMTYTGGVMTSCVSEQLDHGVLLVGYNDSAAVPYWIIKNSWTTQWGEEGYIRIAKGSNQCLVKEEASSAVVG
Assay: Cruzain enzyme inhibition assay (cleavage of fluorogenic substrate Z-FR-AMC)
Type: biochemical
Details: Table S2; substrate 2.5 µM; read-out: IC50 (µM) cruzain at [S] 2.5 µM
Report as a plain number; the unit µM is understood.

May I ask what IC50 has been recorded for O=C(COc1ccccc1)NCCc1nc2ccccc2n1CCOc1ccccc1 ?
0.5

May I ask what IC50 has been recorded for O=C(COc1ccccc1)NCCc1nc2ccccc2n1CCCOc1ccccc1 ?
1.7

May I ask what IC50 has been recorded for C=CCCn1c(CCNC(=O)COc2ccccc2)nc2ccccc21 ?
12.4

May I ask what IC50 has been recorded for O=C(COc1ccccc1)NCCc1nc2ccccc2n1Cc1ccccc1 ?
1.6

* * *

I'd be grateful if you could share measured half-life for these entries.
Assay: In vivo pharmacokinetics in male CD1 mice
Design: species or system mouse
Conditions: male, CD1, mouse, plasma, 0.5 mg/kg; Table S6; IV, mice; read-out: T1/2(h) IV (converted)
Report as a plain number; the unit h is understood.

May I ask what half-life has been recorded for O=C(COc1ccccc1)NCCc1nc2ccccc2[nH]1 ?
0.21

May I ask what half-life has been recorded for O=C(Cn1ccnc1[N+](=O)[O-])NCc1ccccc1 [BZ, benznidazole, reference compound] ?
0.8

May I ask what half-life has been recorded for CC(=O)Nc1cccc(OCC(=O)NCCc2nc3ccccc3[nH]2)c1 ?
0.35

May I ask what half-life has been recorded for O=C(COc1cccc([N+](=O)[O-])c1)NCCc1nc2ccccc2[nH]1 ?
0.21

May I ask what half-life has been recorded for CC(=O)Nc1ccc(OCC(=O)NCCc2nc3ccccc3[nH]2)cc1 ?
0.63

May I ask what half-life has been recorded for NC(=O)Cn1c(CCNC(=O)COc2ccccc2)nc2ccccc21 ?
0.52

May I ask what half-life has been recorded for O=C(COc1ccc2ccc(O)cc2c1)NCCc1nc2ccccc2[nH]1 ?
0.13

May I ask what half-life has been recorded for O=C(COc1ccc2cc(O)ccc2c1)NCCc1nc2ccccc2[nH]1 ?
0.14

* * *

Assay: In vitro metabolic stability in human liver microsomes
Type: in vitro ADME
Details: human, liver microsomes, Table S5, CLint/fu, read-out: CLint_u (L/h/kg) Human (converted)
Procedure: Isolated mouse (BD Gentest, Bedford, MA) and human liver microsomes (XenoTech, Kansas City, KS) ([Plant, 2004]) were added at a final concentration of 0.25 mg/ml to a solution containing 40 mM dibasic potassium phosphate and 10 mM monobasic potassium phosphate. Stock solutions of compounds at 5 mM were prepared in 100% DMSO. A 50:50 quenching solution of acetonitrile (ACN) and methanol (MeOH) was prepared. An NADPH solution was prepared at 10 mM. […]
I'd be grateful if you could share measured CLint scaled at 5 µM for these entries.

May I ask what CLint scaled at 5 µM has been recorded for C=CCCn1c(CCNC(=O)COc2ccccc2)nc2ccccc21 ?
70.2 L/h/kg

May I ask what CLint scaled at 5 µM has been recorded for O=C(COc1ccccc1Br)NCCc1nc2ccccc2n1CCOc1ccccc1Br ?
3370 L/h/kg

May I ask what CLint scaled at 5 µM has been recorded for Cc1ccccc1OCC(=O)NCCc1nc2ccccc2n1CCOc1ccccc1Br ?
3870 L/h/kg

May I ask what CLint scaled at 5 µM has been recorded for CC(=O)Nc1ccc(OCC(=O)NCCc2nc3ccccc3[nH]2)cc1 ?
< 1.5 L/h/kg

May I ask what CLint scaled at 5 µM has been recorded for O=C(COc1ccccc1)NCCc1nc2ccccc2n1CCCOc1ccccc1 ?
524 L/h/kg

May I ask what CLint scaled at 5 µM has been recorded for O=C(COc1ccccc1)NCCc1nc2ccccc2n1CCOc1ccccc1 ?
301 L/h/kg

May I ask what CLint scaled at 5 µM has been recorded for O=C(COc1ccc2cc(O)ccc2c1)NCCc1nc2ccccc2[nH]1 ?
8.15 L/h/kg

May I ask what CLint scaled at 5 µM has been recorded for O=C(COc1ccccc1)NCCc1nc2ccccc2n1CCOCc1ccccc1 ?
496 L/h/kg

* * *

Assay: Experimental distribution coefficient (eLogD) by LC retention time
Type: physicochemical
Conditions: Table S5
Param label: returns satisfied when eLogD < 4, returns not satisfied otherwise, including exact equality.

Hello, is eLogD of the following molecule strictly smaller than 4? Cn1c(CCNC(=O)COc2ccccc2)nc2ccccc21 [Compound 25]
satisfied

Hello, is eLogD of the following molecule strictly smaller than 4? O=C(COc1ccccc1)NCCc1nc2ccccc2[nH]1 [Compound 1]
satisfied

Hello, is eLogD of the following molecule strictly smaller than 4? O=C(COc1ccccc1)NCCc1nc2ccccc2n1CCOc1ccccc1 [Compound 20]
not satisfied

Hello, is eLogD of the following molecule strictly smaller than 4? CC(=O)Nc1ccc(OCC(=O)NCCc2nc3ccccc3[nH]2)cc1 [Compound 2]
satisfied

Hello, is eLogD of the following molecule strictly smaller than 4? O=C(COc1cccc([N+](=O)[O-])c1)NCCc1nc2ccccc2[nH]1 [Compound 8]
satisfied

Hello, is eLogD of the following molecule strictly smaller than 4? O=C(COc1ccc2cc(O)ccc2c1)NCCc1nc2ccccc2[nH]1 [Compound 10]
satisfied

Hello, is eLogD of the following molecule strictly smaller than 4? CC(=O)Nc1cccc(OCC(=O)NCCc2nc3ccccc3[nH]2)c1 [Compound 3]
satisfied

Hello, is eLogD of the following molecule strictly smaller than 4? C=CCCn1c(CCNC(=O)COc2ccccc2)nc2ccccc21 [Compound 27]
satisfied

Hello, is eLogD of the following molecule strictly smaller than 4? O=C(Cn1ccnc1[N+](=O)[O-])NCc1ccccc1 [BZ, benznidazole, reference compound]
satisfied

Hello, is eLogD of the following molecule strictly smaller than 4? O=C(COc1ccc2ccc(O)cc2c1)NCCc1nc2ccccc2[nH]1 [Compound 11]
satisfied

Hello, is eLogD of the following molecule strictly smaller than 4? Nc1cccc(OCC(=O)NCCc2nc3ccccc3[nH]2)c1 [Compound 9]
satisfied

Hello, is eLogD of the following molecule strictly smaller than 4? O=C(COc1ccccc1)NCCc1nc2ccccc2n1CCCOc1ccccc1 [Compound 24]
not satisfied

Hello, is eLogD of the following molecule strictly smaller than 4? NC(=O)Cn1c(CCNC(=O)COc2ccccc2)nc2ccccc21 [Compound 28]
satisfied

* * *

Assay: In vitro metabolic stability in mouse liver microsomes
Format: in vitro ADME
Conditions: mouse, liver microsomes, Table S5, read-out: CLint (L/h/kg) Mouse (converted)
recorded_endpoint: CLint scaled at 5 µM (L/h/kg)
Report as a plain number; the unit L/h/kg is understood.

May I ask what CLint scaled at 5 µM has been recorded for O=C(COc1ccccc1)NCCc1nc2ccccc2n1CCCOc1ccccc1 [Compound 24] ?
501

May I ask what CLint scaled at 5 µM has been recorded for COc1ccc2cc(OCC(=O)NCCc3nc4ccccc4[nH]3)ccc2c1 [Compound 12] ?
177

May I ask what CLint scaled at 5 µM has been recorded for O=C(COc1ccc(N2C(=O)CCC2=O)cc1)NCCc1nc2ccccc2[nH]1 [Compound 4] ?
20.8

May I ask what CLint scaled at 5 µM has been recorded for NC(=O)Cn1c(CCNC(=O)COc2ccccc2)nc2ccccc21 [Compound 28] ?
5.34

May I ask what CLint scaled at 5 µM has been recorded for Nc1cccc(OCC(=O)NCCc2nc3ccccc3[nH]2)c1 [Compound 9] ?
22.7

May I ask what CLint scaled at 5 µM has been recorded for O=C(COc1ccccc1)NCCc1nc2ccccc2n1CCOc1ccccc1Br [Compound 19] ?
305

May I ask what CLint scaled at 5 µM has been recorded for Cn1c(CCNC(=O)COc2ccccc2)nc2ccccc21 [Compound 25] ?
122

May I ask what CLint scaled at 5 µM has been recorded for COCCn1c(CCNC(=O)COc2ccccc2)nc2ccccc21 [Compound 29] ?
235

May I ask what CLint scaled at 5 µM has been recorded for O=C(COc1cccc(NC(=O)CCCO)c1)NCCc1nc2ccccc2[nH]1 [Compound 7] ?
8.19

* * *

Experiment: In vivo pharmacokinetics in male CD1 mice
Set-up: species or system mouse
Conditions: mouse, plasma; Table 6; IV 0.5 mg/kg, male CD1 mice; read-out: T1/2 (h) IV (converted)
recorded_endpoint: half-life (h)
Report as a plain number; the unit h is understood.

May I ask what half-life has been recorded for N#Cc1ccccc1OCC(=O)NCCc1nc2ccccc2[nH]1 ?
0.2

May I ask what half-life has been recorded for Cc1ccccc1OCC(=O)NCCc1nc2ccccc2o1 ?
0.2

May I ask what half-life has been recorded for O=C(COc1ccc(Br)cc1)NCCc1nc2ccccc2[nH]1 ?
0.2

May I ask what half-life has been recorded for O=C(COc1ccc2ccccc2c1Br)NCCc1nc2ccccc2[nH]1 ?
0.3

May I ask what half-life has been recorded for Cc1ccccc1OCC(=O)NCCc1nc2ccccc2[nH]1 ?
0.5

Taken from paper PMC8767159.
